pIC50 for assorted molecules
- TARGET: IRAK4 (Homo sapiens (Human))
- ASSAY_METHOD_TEXT: IRAK-4 biochemical kinase assay, AlphaScreen format
- CONDITION_SUMMARY: 1 nM IRAK4, 1.6 μM peptide, 10 μM ATP, 3.5 h at RT; class symbols
pIC50: −log10 of the molar value.

MOLECULE: CN1CCOCCNC(=O)c2nn(C3CCOCC3)cc2NC(=O)c2csc(n2)-c2ccnc1c2 [Example 219]
pIC50: > 7.00
//
MOLECULE: CN(C)CCNC(=O)c1ccc2c(c1)OCCCCCNc1cc(ccn1)-c1nc(cs1)C(=O)N2 [Compound 25]
pIC50: > 7.00
//
MOLECULE: O=C1Nc2ccccc2OCCCCCOc2cc(ccn2)-c2nc1co2 [Compound 3]
pIC50: > 6.00
//
MOLECULE: O=C1Nc2cn(C3CCOCC3)nc2C(=O)NCCCCCOc2cc(ccn2)-c2nc1co2 [Compound 38]
pIC50: > 7.00
//
MOLECULE: O=C1NCCOC2CCC(CC2)CNc2cc(ccn2)-c2nc1cs2 [Example 88]
pIC50: > 5.00
//
MOLECULE: CC(C)(C)OC(=O)NCCC(=O)N1CCCc2cc(ccn2)-c2nc(cs2)C(=O)Nc2cn(C3CCOCC3)nc2C(=O)NCC1 [Example 171]
pIC50: > 7.00
//
MOLECULE: O=C(CCC1NC(=O)c2nn(C3CCOCC3)cc2NC(=O)c2csc(n2)-c2ccnc(c2)CCCNC1=O)NCc1ccccc1 (centres unmarked) [Example 193]
pIC50: > 6.00
//
MOLECULE: O=C1Nc2cnn(CCN3CCNCC3)c2C(=O)NCCOCCOc2cc(ccn2)-c2nc1cs2 [Example 109]
pIC50: > 5.00

Reported pIC50 of Cn1cc2c(n1)C(=O)NCCC/C=C/CCCN(C(=O)OC(C)(C)C)c1cc(ccn1)-c1nc(co1)C(=O)N2 [Compound 28] : > 6.00

For this molecule ( O=C1Nc2cn(C3CCCCO3)nc2C(=O)NCCOCCOc2cc(ccn2)-c2nc1cs2 (centres unmarked) [Example 110] ), measured pIC50 is > 7.00

====

Quick list: IC50 per entry.
- TARGET: IRAK4 (Homo sapiens (Human), UniProt Q9NWZ3)
- Sequence (Q9NWZ3 whole entry, species assumed): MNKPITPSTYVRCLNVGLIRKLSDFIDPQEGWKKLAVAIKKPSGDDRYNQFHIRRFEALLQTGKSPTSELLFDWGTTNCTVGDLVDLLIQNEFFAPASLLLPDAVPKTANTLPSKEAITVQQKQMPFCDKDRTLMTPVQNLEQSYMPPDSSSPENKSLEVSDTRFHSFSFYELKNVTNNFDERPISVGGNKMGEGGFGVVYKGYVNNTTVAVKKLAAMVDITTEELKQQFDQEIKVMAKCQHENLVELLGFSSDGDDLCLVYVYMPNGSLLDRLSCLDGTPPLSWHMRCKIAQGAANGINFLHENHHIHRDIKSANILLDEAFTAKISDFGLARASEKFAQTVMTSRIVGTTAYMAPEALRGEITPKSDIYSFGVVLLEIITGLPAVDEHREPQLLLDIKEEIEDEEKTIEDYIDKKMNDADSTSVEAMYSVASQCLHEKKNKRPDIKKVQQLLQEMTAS
- ASSAY_METHOD_TEXT: IRAK-4 biochemical kinase assay, AlphaScreen format
- CONDITION_SUMMARY: 1 nM IRAK4, 1.6 μM peptide, 10 μM ATP, 3.5 h at RT; class symbols
- Method: The biochemical assay is in a AlphaScreen format. The kinase reaction is based on the IRAK-4 phosphorylation of a biotin labeled peptide. The phosphopeptide is incubated with anti-phosphothreonine antibody as well as streptavidin- and protein A-coated beads. Binding of the protein-A coated beads to the antibody and the streptavidin beads to the peptide, leads to an energy transfer from one bead to the other, ultimately producing a luminescent/fluorescent signal.

Sample answers from the record:
COMPOUND: CC1CCCCNc2cc(ccn2)-c2nc(co2)C(=O)Nc2ccccc2O1 (stereo not shown)
IC50: < 100 nM
--
COMPOUND: CN1CCCCNC(=O)c2nn(C3CCOCC3)cc2NC(=O)c2csc(n2)-c2ccnc1c2
IC50: < 100 nM
--
COMPOUND: CCOC(=O)CC(=O)N1CCCc2cc(ccn2)-c2nc(cs2)C(=O)Nc2cn(C3CCOCC3)nc2C(=O)NCC1
IC50: < 100 nM
--
COMPOUND: CCN1CCCCCCCCNc2cc(ccn2)-c2nc(cs2)C1=O
IC50: < 1000 nM
--
COMPOUND: CN(C)C1CCN(C(=O)c2ccc3c(c2)NC(=O)c2csc(n2)-c2ccnc(c2)NCCCCCO3)C1 (stereo not shown)
IC50: < 100 nM

The compound listed as O=C1Nc2cn(C3CCOCC3)nc2C(=O)NCCOCCNc2cc(ccn2)-c2nc1cs2 shows IC50 equal to < 100 nM

response.value for O=C1Nc2cn(C3CCOCC3)nc2C(=O)NCCOCCOc2cc(ccn2)-c2cccc1n2 (field: IC50) = < 1000 nM

Reported IC50 of CN(C)CCCn1cc2c(n1)C(=O)NCCOCCOc1cc(ccn1)-c1nc(cs1)C(=O)N2 : < 100 nM

The compound listed as CC(=O)N1CCCc2cc(ccn2)-c2nc(cs2)C(=O)Nc2cn(C3CCOCC3)nc2C(=O)NCC1 has a reported IC50 of < 100 nM

====

- TARGET: IRAK4 (Homo sapiens (Human), UniProt Q9NWZ3)
- ASSAY_METHOD_TEXT: IRAK-4 biochemical kinase assay, AlphaScreen format
- CONDITION_SUMMARY: 1 nM IRAK4, 1.6 μM peptide, 10 μM ATP, 3.5 h at RT; class symbols
pIC50: −log10 of the molar value.
Reported pIC50 is given for each of the following molecules.

MOLECULE: O=C1Nc2cn(CCC3CCNCC3)nc2C(=O)NCCOCCOc2cc(ccn2)-c2nc1cs2 [Example 155]
MEASUREMENT_NAME: pIC50
OBSERVED_MEASUREMENT: > 7.00

Field pIC50 (entry O=C1Nc2cn(C3CCOCC3)nc2C(=O)NCCCCCn2cc(cn2)-c2nc1co2 [Compound 42] ) reads > 6.00

Lookup result for O=C1Nc2ccccc2OCCCCCCc2cc(ccn2)-c2nc1co2 [Compound 5] ; measured pIC50: > 7.00

Value of pIC50 reported for the molecule O=C1Nc2cn(C3CCOCC3)nc2C(=O)NCCCCCc2cc(ccn2)-c2nc1co2 [Compound 40] is > 7.00

// recorded pIC50 for CN(C)CCn1cc2c(n1)C(=O)NCCOCCOc1cc(ccn1)-c1nc(cs1)C(=O)N2 [Example 111] : > 6.00

Briefly, pIC50 measured for O=C1NCC(C2CC2)OCCCCCNc2cc(ccn2)-c2nc1co2 (stereo not shown) [Example 75] : > 6.00

Reported pIC50 ( Cn1cc2c(n1)C(=O)NCCOCCCCc1cc(ccn1)-c1nc(cs1)C(=O)N2 [Example 217] ) = > 7.00

Note to self: pIC50 recorded for CC(C)(C)OC(=O)N1CCN(CCn2cc3c(n2)C(=O)NCCOCCNc2cc(ccn2)-c2nc(cs2)C(=O)N3)CC1 [Example 144] was > 7.00

In plain terms, O=C(NCCN1CCCCC1)c1ccc2c(c1)NC(=O)c1csc(n1)-c1ccnc(c1)NCCCCCO2 [Compound 18] has a documented pIC50 of > 7.00

====

- TARGET: IRAK4 (Homo sapiens (Human), UniProt Q9NWZ3)
- ASSAY_METHOD_TEXT: IRAK-4 biochemical kinase assay, AlphaScreen format
- CONDITION_SUMMARY: 1 nM IRAK4, 1.6 μM peptide, 10 μM ATP, 3.5 h at RT; class symbols
pIC50: −log10 of the molar value.
Listed here: items and their measured pIC50.

STRUCTURE: CCN1CCCCCCOc2cc(ccn2)-c2nc(co2)C1=O
pIC50: > 7.00
--
STRUCTURE: Cn1cc2c(n1)C(=O)NCCOCCOc1cc(ccn1)-c1cccc(n1)C(=O)N2
pIC50: > 7.00
--
STRUCTURE: CN1CCCCNC(=O)c2nn(C)cc2NC(=O)c2csc(n2)-c2ccnc1c2
pIC50: > 7.00
--
STRUCTURE: O=C1Nc2cn(C3CCOCC3)nc2C(=O)NCCOCCCCc2cc(ccn2)-c2nc1cs2
pIC50: > 7.00

pIC50 on IRAK4 (Homo sapiens (Human), UniProt Q9NWZ3) for O=C1NCc2ccc(cc2)OCCOc2cc(ccn2)-c2nc1co2 is > 5.00

Note to self: pIC50 of O=C1Nc2ccccc2OCCCCCCn2cc(cn2)-c2nc1co2 with IRAK4 (Homo sapiens (Human), UniProt Q9NWZ3) was > 7.00

Record O=C(O)CCn1cc2c(n1)C(=O)NCCOCCOc1cc(ccn1)-c1nc(cs1)C(=O)N2 has IRAK4 (Homo sapiens (Human), UniProt Q9NWZ3) pIC50 equal to > 6.00

pIC50 for IRAK4 (Homo sapiens (Human), UniProt Q9NWZ3) with input O=C1Nc2cn(C3CCOCC3)nc2C(=O)NCCCCOc2cc(ccn2)-c2nc1co2 equals > 7.00

Lab note: compound Cn1cc2c(n1)C(=O)NCCCCCOc1cc(ccn1)-c1nc(co1)C(=O)N2 tested on IRAK4 (Homo sapiens (Human), UniProt Q9NWZ3); recorded pIC50 was > 7.00

====

- TARGET: UniProt Q9NWZ3
- ASSAY_METHOD_TEXT: IRAK-4 biochemical kinase assay, AlphaScreen format
- CONDITION_SUMMARY: 1 nM IRAK4, 1.6 μM peptide, 10 μM ATP, 3.5 h at RT; given as numeric bound
MEASUREMENT_NAME: IC50

MOLECULE: O=C1c2coc(n2)-c2ccnc(c2)OCCCCCCN1CCCN1CCCCC1
TARGET: UniProt Q9NWZ3
IC50: > 10 µM

MOLECULE: CCn1cc(N2CCCCCCOc3cc(ccn3)-c3nc(co3)C2=O)cn1
TARGET: UniProt Q9NWZ3
IC50: > 10 µM

MOLECULE: O=C1c2coc(n2)-c2ccncc2OCCCN1CCCN1CCCCC1
TARGET: UniProt Q9NWZ3
IC50: > 10 µM

MOLECULE: Cn1cc2c(n1)C(=O)NCCOCCOc1cc(ccn1)C1=CC=C(S1)C(=O)N2
TARGET: UniProt Q9NWZ3
IC50: > 10 µM

MOLECULE: CN1CCCOc2cnccc2-c2nc(c[nH]2)C1=O
TARGET: UniProt Q9NWZ3
IC50: > 10 µM

Now let's try a different one.
Input CN1CCCOc2cnccc2-c2nc(cs2)C1=O . Output IC50: > 10 µM
